Where do the numbers come from? From paper PMC7826789.

- Tested on: RIPK4
- TEST_CONTEXT: Compound Concentration (nM):1000;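 further: KINOMEscan scanMAX binding as percent activity remaining versus control; lower means stronger binding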
METRIC: Percent Control (%)

• NS(=O)(=O)c1ccc(N/N=C2\C(=O)Nc3ccc(Cl)cc32)cc1 [GW280670X] = 100
• NS(=O)(=O)c1ccc(N/N=C2\C(=O)Nc3ccc(-c4cnco4)cc32)cc1 [GW276655] = 87
• COc1cc(C=NNc2ncnc3c2cnn3-c2ccccc2)ccc1O [GW513184X] = 9.1
• COc1cc2ncnc(Nc3ccc4c(cnn4Cc4ccccc4)c3)c2cc1OC.Cl [GW282449A] = 100
• Cl.O=S1CCN(Cc2ccc(-c3ccc4ncnc(Nc5ccc(OCc6ccccc6)c(F)c5)c4c3)o2)CC1 [GW576924A] = 92
• COc1ccc2c(-c3ccnc(Nc4cccc(OC(F)(F)F)c4)n3)cnn2n1 [GW810372X] = 77
• CN(C)CCNC(=O)Nc1ccc(N(C)c2ccnc(Nc3ccc(CS(C)(=O)=O)cc3)n2)cc1.Cl [GW830900A] = 60
• CCn1c(-c2nonc2N)nc2c(C#CC(C)(C)O)nc(OCCNC)cc21.Cl [GSK949675] = 100

====

Quick list: Percent Control per entry.
- Test system: PCTK2
- Construct: gene CDK17
- TEST_CONTEXT: Compound Concentration (nM):1000
METRIC: Percent Control

* C[C@@H](Oc1cc(-n2cnc3ccc(OC4CCN(C)CC4)cc32)sc1C(N)=O)c1ccccc1Cl [GSK579289A] | 94%
* CCS(=O)(=O)c1ccc(OC)c(Nc2ncc(-c3cccc(OC)c3)o2)c1 [GW580509X] | 100%
* Cl.O=C(O[C@H]1CN[C@H](C#Cc2cc3ncnc(Nc4ccc5c(cnn5Cc5ccccc5)c4)c3s2)C1)N1CCOCC1 [GSK200398A] | 96%
* NS(=O)(=O)c1ccc(N/N=C2\C(=O)Nc3ccc(C(=O)NCc4ccncc4)cc32)cc1 [GW300657X] | 22%
* O=C1Nc2ccc(C(=O)c3ccco3)cc2C1=Cc1cc(Cl)c(O)c(Cl)c1 [GW406108X] | 100%
* COc1cc(C=NNc2ncnc3c2cnn3-c2ccccc2)ccc1O [GW513184X] | 38%
* CN(C)c1cc2c(Nc3ccc4c(cnn4Cc4ccccc4)c3)ncnc2cn1 [GW282974X] | 100%
* COc1cc2ncn(-c3cc(O[C@H](C)c4ccccc4Cl)c(C(N)=O)s3)c2cc1OC [GSK237701A] | 100%
* CC1=C(C(=O)Nc2ccc3[nH]ncc3c2)C(c2ccc3ccccc3c2)CC(=O)N1 (centres unmarked) [GSK270822A] | 100%
* NS(=O)(=O)c1ccc(N/N=C2\C(=O)Nc3ccc(Cl)cc32)cc1 [GW280670X] | 100%
* Cc1cc(O)cc(C)c1/C=C/c1cncc(C(N)=O)c1 [GW435821X] | 100%
* CC(C)COC(=O)c1ccc2c(c1)/C(=C/Nc1ccc(S(N)(=O)=O)cc1)C(=O)N2 [GW416981X] | 16%
* COc1cc(/C=N/Nc2ncnc3[nH]ncc23)ccc1O [GW578748X] | 100%
* CCc1ccc(Oc2nccc(-c3c(-c4ccc(F)cc4)ncn3C3CCNCC3)n2)cc1 [SB-242719] | 100%
* COc1cc2ncnc(Nc3ccc4c(cnn4Cc4ccccc4)c3)c2cc1OC.Cl [GW282449A] | 100%
* CC1=C(C(=O)Nc2ccc3[nH]ncc3c2)C(c2ccc(Cl)c(Cl)c2)CC(=O)N1 (centres unmarked) [GSK299115A] | 100%
* COc1ccccc1-c1cc(/C=C2\C(=O)Nc3ncc(Br)cc32)cc(Br)c1O [GW442130X] | 100%

====

- System: WEE2
- TEST_CONTEXT: Compound Concentration (nM):1000
METRIC: Percent Control

- COc1ccc(COc2ccc(Cc3cnc(N)nc3N)cc2OC)cc1 [GW632580X]: 83%
- Cl.O=C(Nc1ccc(Oc2ccc3[nH]c(NC(=O)c4ccccc4)nc3c2)cc1)Nc1cc(C(F)(F)F)ccc1F [GW709042A]: 100%
- COc1cc(/C=N/Nc2ncnc3[nH]ncc23)ccc1O [GW578748X]: 80%
- COc1cccc(-c2c[nH]c3c(N/N=C/c4ccncc4)ncnc23)c1 [GW814408X]: 98%
- O=C(Nc1n[nH]c2nc(-c3ccc(O)cc3)c(Br)cc12)C1CC1 [SB-725317]: 100%
- C/C(Nc1ccc(S(N)(=O)=O)cc1)=C1/C(=O)Nc2ccccc21 [GW335962X]: 95%
- CCS(=O)(=O)c1ccc(OC)c(Nc2ncc(-c3cccc(F)c3)o2)c1 [GW621970X]: 100%
- COc1ccc2c(-c3ccnc(Nc4cccc(OC(F)(F)F)c4)n3)cnn2n1 [GW810372X]: 100%
- Nc1ncnc2occ(-c3ccc(NC(=O)Nc4cc(C(F)(F)F)ccc4F)cc3)c12 [GW770249X]: 100%
- C[C@@H](Oc1cc(-n2cnc3ccc(OC4CCN(C)CC4)cc32)sc1C(N)=O)c1ccccc1Cl [GSK579289A]: 87%
- COc1cc2ncnc(Nc3ccc4c(cnn4Cc4ccccc4)c3)c2cc1OC.Cl [GW282449A]: 100%
- CC1=C(C(=O)Nc2ccc3[nH]ncc3c2)C(c2ccc3ccccc3c2)CC(=O)N1 (centres unmarked) [GSK270822A]: 62%
- COc1cc(C)c(N(C)C(=O)CN(C)C)cc1Nc1nc(Nc2cccc(F)c2C(N)=O)c2cc[nH]c2n1 [GSK2219385]: 90%
- Cl.c1ccc(Cc2nc3ccc(Nc4ncnc5ccccc45)cc3[nH]2)cc1 [GR269666A]: 100%
- COc1cc(C=NNc2ncnc3c2cnn3-c2ccccc2)ccc1O [GW513184X]: 100%
- COc1cc2ncn(-c3cc(O[C@H](C)c4ccccc4Cl)c(C(N)=O)s3)c2cc1OC [GSK237701A]: 76%
- COc1ccccc1-c1cc(/C=C2\C(=O)Nc3ncc(Br)cc32)cc(Br)c1O [GW442130X]: 100%

====

- System: EGFR(L861Q)
- TEST_CONTEXT: Compound Concentration (nM):1000
METRIC: Percent Control (%)

* COc1cc2ncnc(Nc3ccc4c(cnn4Cc4ccccc4)c3)c2cc1OC.Cl [GW282449A] | 0
* CN1CCN(C(=O)c2ccc(NC(=O)Nc3ccc(N(C)c4ccnc(Nc5ccc(CS(C)(=O)=O)cc5)n4)cc3)cc2)CC1.Cl [GW830263A] | 92
* COc1cc(/C=N/Nc2ncnc3[nH]ncc23)ccc1O [GW578748X] | 64
* COc1cc(C=NNc2ncnc3c2cnn3-c2ccccc2)ccc1O [GW513184X] | 62
* COc1ccc2cc(-c3c(-c4ccncc4)nc(-c4ccc(S(C)(=O)=O)cc4C)n3C)ccc2c1 | 41
* Nc1ncnc2occ(-c3ccc(NC(=O)Nc4cc(C(F)(F)F)ccc4F)cc3)c12 [GW770249X] | 79

====

- Tested on: ASK1
- Construct: gene MAP3K5
- TEST_CONTEXT: Compound Concentration (nM):1000
METRIC: Percent Control

* NS(=O)(=O)c1ccc(Nc2ncc(-c3ccccc3)o2)cc1 [GW572399X] | 100%
* COc1cc(N2CCN(C(C)C)CC2)ccc1Nc1nc(Nc2ccc(F)cc2C(=O)NC[C@@H](O)CO)c2cc[nH]c2n1 [GSK1392956A] | 100%
* COc1ccc2c(-c3ccnc(Nc4cccc(OC(F)(F)F)c4)n3)cnn2n1 [GW810372X] | 100%
* COc1cc2ncn(-c3cc(O[C@H](C)c4ccccc4Cl)c(C(N)=O)s3)c2cc1OC [GSK237701A] | 100%
* CN(C)c1cc2c(Nc3ccc4c(cnn4Cc4ccccc4)c3)ncnc2cn1 [GW282974X] | 100%
* COc1cc(C=NNc2ncnc3c2cnn3-c2ccccc2)ccc1O [GW513184X] | 100%
* COc1cccc(-c2c[nH]c3c(N/N=C/c4ccncc4)ncnc23)c1 [GW814408X] | 100%
* CN(C)CCNC(=O)Nc1ccc(N(C)c2ccnc(Nc3ccc(CS(C)(=O)=O)cc3)n2)cc1.Cl [GW830900A] | 100%
* Cl.c1ccc(Cc2nc3ccc(Nc4ncnc5ccccc45)cc3[nH]2)cc1 [GR269666A] | 100%
* COc1cc(/C=N/Nc2ncnc3[nH]ncc23)ccc1O [GW578748X] | 100%
* COc1cccc(-n2ncc3c(N/N=C/c4ccncc4)ncnc32)c1 [GW784752X] | 100%
* NS(=O)(=O)c1ccc(N/N=C2\C(=O)Nc3ccc(Cl)cc32)cc1 [GW280670X] | 100%
* CCc1ccc(Oc2nccc(-c3c(-c4ccc(F)cc4)ncn3C3CCNCC3)n2)cc1 [SB-242719] | 84%
* O=C1Nc2ccc(C(=O)c3ccco3)cc2C1=Cc1cc(Cl)c(O)c(Cl)c1 [GW406108X] | 100%
* COc1ccc2[nH]c3c4[nH]c5ccc(OC)cc5c4c4c(c3c2c1)C(=O)NC4=O [GW296115X] | 83%
* COC(=O)Nc1nc2ccc(Oc3ccc(NC(=O)Nc4cc(C(F)(F)F)ccc4F)cc3)cc2s1.Cl [GW693917A] | 100%
* CC1=C(C(=O)Nc2ccc3[nH]ncc3c2)C(c2ccc3ccccc3c2)CC(=O)N1 (stereo not shown) [GSK270822A] | 98%
* COc1ccc2cc(-c3c(-c4ccncc4)nc(-c4ccc(S(C)(=O)=O)cc4C)n3C)ccc2c1 [SB-633825] | 83%
* NS(=O)(=O)c1ccc(N/N=C2\C(=O)Nc3ccc(-c4cnco4)cc32)cc1 [GW276655] | 100%
